Exercise: for every item that follows, state its recorded growth.
# System: SF-295 CNS
# assay comment: NCI-60 one-dose screen, 48 h (100 = growth as untreated, 0 = no growth, -100 = all killed)
# test conditions: 10 µM unless noted
This is part of a sample that, as a whole, favours compounds with a hit. Of some 83,000 tested, about 20% had one in any assay.
Supply the numeric figure in %, leaving out any unit text.

Reported growth, compound `COc1ccc(OC)c(-c2cn3nc(-c4c[nH]c5ccc(Br)cc45)sc3n2)c1` : ____ 54.1

Need growth of `CCCCCCCCn1ccc2cc(NC(=O)Cn3cc(CN4CCOCC4)nn3)ccc21` , thanks. 90.1

Which growth value is on record for `Cn1c(=O)c2c(nc(NC3=NS(=O)(=O)c4ccccc43)n2Cc2ccccc2)n(C)c1=O` ? 103

* * *

# System: COLO 205 colon
# assay comment: NCI-60 one-dose screen, 48 h (100 = growth as untreated, 0 = no growth, -100 = all killed)
# test conditions: 10 µM unless noted
Compounds without any hit were thinned out: in the full panel of roughly 83,000, 20% have a hit.
experimental endpoint: growth (%)
Your answer should be a plain number; it is taken to be in %.

State its growth on COLO 205 colon: `CC(C)C[C@@H](C(=O)N[C@H](C(=O)OC1CCCC1)c1ccccc1)[C@H](O)C(=O)NO` 78.6

Lab note: need growth for `CCCCCSB(SCCCCC)c1ccccc1` on COLO 205 colon, anyone have it? 106

GET /values?readout=growth&system=COLO 205 colon&item= `COc1cc(C(=O)c2c(-c3ccccc3)oc3c(OC)cccc23)cc(OC)c1O` 7.65

Report growth for COc1ccc(C2C(C#N)=C(N)Oc3c2sc2c(Br)cccc32)cc1 (stereo not given) tested on COLO 205 colon. 2.31

Give the reported growth for `Cc1ccc(/C=C2\CN(C(=O)C(Cl)Cl)C/C(=C\c3ccc(C)cc3)C2=O)cc1` (system: COLO 205 colon). -63

* * *

# Tested on: SK-OV-3 ovarian
# assay comment: NCI-60 one-dose screen, 48 h
# test conditions: 10 µM unless noted
About 83,000 compounds went through this panel and 20% of them were active in at least one assay; those are over-represented in the sample as a whole. Active and inactive are the calls of the source. The calls were made as follows: active = growth percent below 10; inactive = the rest.
Return exactly one item of active, inactive

Short answer needed: outcome of this test for `COC1=CC(c2ccc[nH]2)=N/C1=C\c1[nH]c(C)c(CC(=O)OCc2ccccc2)c1C` ? inactive

What is the recorded call for this compound in the test? `CCc1ccc(CCC(=O)Nc2ncc(Cc3ccc(Cl)cc3)s2)o1` inactive

Hi team, can someone confirm the assay call for `COC(=O)C1=Nc2ccc(F)cc2/C1=C\c1sc(Nc2ccc(O)cc2)nc1O` ? inactive

Tell me the recorded outcome of this test for `C#CC#CC#CC#CC#CC#CC#CC#CC[C@H]1OC[C@H](COC(=O)O[C@@H](C(=O)O[C@H]2C[C@@]3(O)[C@@H](OC(=O)c4ccccc4)[C@@H]4[C@]5(OC(C)=O)CO[C@@H]5C[C@H](O)[C@@]4(C)C(=O)[C@H](OC(C)=O)C(=C2C)C3(C)C)[C@@H](NC(=O)c2ccccc2)c2ccccc2)O1` . inactive

Give the logged outcome of this assay for the following compound: `O=C1NC(=Nc2ccc(O)cc2)S/C1=C\c1cccs1` inactive

Check the results log: what was the call for COc1ccc(C2CC(c3ccc4c(c3)OCO4)=Nc3c(N)ncnc3N2)cc1 (stereo not drawn) ? inactive

Would you mind telling me which call this test gave `O=C1Nc2ccccc2/C1=C/c1cn(C[C@@H](O)Cn2c3ccccc3c(=O)c3ccccc32)c2ccccc12` ? inactive

Record lookup: outcome of this test for `COP(=O)(OC)c1nnn(-c2cccc([N+](=O)[O-])c2)c1C` ? inactive

Dear all, I need the recorded test outcome for `COc1cc(C(=O)c2c(-c3ccccc3)oc3c(OC)cccc23)cc(OC)c1O` , thank you. inactive

Outcome? `N=C(N)c1ccc(-c2ccc(-c3ccc(Cl)cc3)o2)o1` inactive

Name the outcome recorded for `CCCCSCC(=O)c1ccccc1` in the assay. inactive

What classification did `O=C(CBr)CN1C(=O)c2ccccc2C1=O` end up with in this test? inactive

Can you look up the reported call for `O=C1c2cccnc2C(=O)c2c1c(C(=O)OCCCN1CCCCC1)c1ccccn21` for me? active

Dear all, I need the recorded test outcome for `COc1cc2nc(Nc3cccc(F)c3)nc(Nc3cc(C)[nH]n3)c2cc1OC` , thank you. active

What is the recorded call for this compound in the test? `COc1ccc(OC)c(Nc2nnc(-c3ccc(Cl)cc3)o2)c1` inactive

How was `CCCNc1nc2ccccc2c2c(=O)c3cccc(Cl)c3sc12` classified in this test? inactive

What was the test verdict on `CCCCCCCCCCCCCCCCOC(=O)c1c(C)[nH]c(/C=C2\N=C(c3ccc[nH]3)C=C2OC)c1C` ? inactive

What was the test verdict on `COc1ccc(-c2cc(-c3ccc(OC)cc3)nc(NCCCNc3ccnc4cc(Cl)ccc34)n2)cc1` ? inactive
